- System: Staphylococcus aureus
- procedure summary: Antibacterial activity against Staphylococcus aureus ATCC 6538 after 24 hrs by colorimetric method using dye MTT
- Format: functional
- study conditions: ATCC 6538, 24 h
A collection of molecules and their measured MIC
measured endpoint: MIC (µg/mL)

# molecule, measured endpoint, limit operator, readout value
measured = [
    ("Cc1ccc(C(=O)NCC(C)/N=C/c2cc(F)ccc2O)c(O)c1 (stereo unspecified)", "MIC", "=", 12.5),
    ("NC[C@H]1O[C@H](O[C@H]2[C@H](O)[C@@H](O[C@H]3O[C@H](CO)[C@@H](O)[C@H](N)[C@H]3O)[C@H](N)C[C@@H]2N)[C@H](O)[C@@H](O)[C@@H]1O", "MIC", "=", 1.56),
    ("CC(CNC(=O)c1ccccc1O)/N=C/c1cc(I)cc(I)c1O (stereo unspecified)", "MIC", "=", 12.5),
    ("Cc1ccc(C(=O)NCC(C)/N=C/c2cc(Br)cc(Br)c2O)c(O)c1 (stereo unspecified)", "MIC", ">", 50),
    ("CC(CNC(=O)c1ccccc1O)/N=C/c1cc(I)ccc1O (stereo unspecified)", "MIC", "=", 12.5),
    ("CC(CNC(=O)c1ccccc1O)/N=C/c1cc(Cl)ccc1O (stereo unspecified)", "MIC", ">", 50),
    ("Cc1ccc(C(=O)NCC(C)/N=C/c2c(O)ccc3ccccc23)c(O)c1 (stereo unspecified)", "MIC", ">", 50),
    ("Cc1ccc(C(=O)NCC(C)/N=C/c2cc(Cl)cc(Cl)c2O)c(O)c1 (stereo unspecified)", "MIC", "=", 6.25),
    ("CC(CNC(=O)c1ccccc1O)/N=C/c1cc(Cl)cc(Cl)c1O (stereo unspecified)", "MIC", "=", 3.13),
    ("CC(CNC(=O)c1ccccc1O)/N=C/c1cc(Br)cc(Br)c1O (stereo unspecified)", "MIC", "=", 6.25),
    ("Cc1ccc(C(=O)NCC(C)/N=C/c2cc(I)ccc2O)c(O)c1 (stereo unspecified)", "MIC", "=", 1.56),
]
